System: Wnt5a (protein binding on small-molecule microarray)
Test: small molecules binding Wnt5a protein – biophysical, small-molecule microarray, 635/667 nm fluorescence, primary screen (AID 1142);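 further: fluorescence read at 667 nm with signal to noise per printed feature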
Details: 635 nm fluorescence, higher = more signal
ASSAY METRIC: composite z-score
Lab note: write the figure by itself, no unit.

Name the recorded composite z-score for COc1ccc([Si](C)(C)[C@@H]2[C@@H](CC(=O)N3CCC[C@H]3CO)O[C@]3(C(=O)N(Cc4cccc(I)c4)c4ccccc43)[C@H]2C)cc1 . 0.557

Name the recorded composite z-score for COC(=O)c1c(CC[C@@H](CO)NC(=O)N[C@@H](Cc2ccccc2)Cn2cc(-c3ccccn3)nn2)oc(C(=O)N2CCOCC2)c1C(=O)OC . -0.216

Name the recorded composite z-score for OB1C=CCC(CCc2ccccc2)O1 (stereo not drawn) . -0.248

Name the recorded composite z-score for COc1ccc(NC(=O)O[C@H]2[C@H](OC(=O)c3cc4ccccc4[nH]3)[C@@H](OC(=O)c3cc4ccccc4[nH]3)[C@@H](OC)O[C@@H]2CO)cc1 . 0.147

Name the recorded composite z-score for C=C[C@H](C)[C@@H](OC(=O)Nc1ccc(SC)cc1)c1ccc(O)c2ccccc12 . 0.64

Name the recorded composite z-score for COCC(=C=CC[C@H](O)c1cccc(OCCO)c1)CCO . 0.461

Name the recorded composite z-score for CC(C)NC(=O)[C@@]1(Cc2ccccc2I)c2ccccc2C(=O)N(Cc2ccccc2Cl)[C@H]1c1ccc(CO)cc1 . 0.361

Name the recorded composite z-score for C=C(/C(=C/C[C@H](OC(C)=O)c1ccc(OCCO)cc1)c1cc(C(=O)OC)ccc1OC)C(C)C . 0.269

---

Molecular target: Albumin (Bos taurus) (UniProt P02769)
Sequence (P02769 whole entry, looked up): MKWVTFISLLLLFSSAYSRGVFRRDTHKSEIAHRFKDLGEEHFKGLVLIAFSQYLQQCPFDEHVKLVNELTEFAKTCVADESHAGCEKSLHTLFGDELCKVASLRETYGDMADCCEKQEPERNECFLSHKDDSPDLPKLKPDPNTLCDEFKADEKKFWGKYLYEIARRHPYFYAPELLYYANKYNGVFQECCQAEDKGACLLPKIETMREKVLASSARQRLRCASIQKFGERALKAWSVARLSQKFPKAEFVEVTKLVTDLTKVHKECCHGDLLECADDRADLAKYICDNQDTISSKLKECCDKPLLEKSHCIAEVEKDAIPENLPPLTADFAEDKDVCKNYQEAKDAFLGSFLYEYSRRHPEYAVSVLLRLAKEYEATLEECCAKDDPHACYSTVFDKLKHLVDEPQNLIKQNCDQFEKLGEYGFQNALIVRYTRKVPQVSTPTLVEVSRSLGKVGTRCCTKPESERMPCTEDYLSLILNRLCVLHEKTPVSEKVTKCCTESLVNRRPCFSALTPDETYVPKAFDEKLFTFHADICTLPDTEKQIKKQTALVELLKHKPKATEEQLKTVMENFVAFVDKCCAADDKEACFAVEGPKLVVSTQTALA
Assay: compounds binding labelled BSA control protein – biochemical, small-molecule microarray, Alexa647 label, 635/667 nm fluorescence, artefact control for SMM control protein annotation, profiling panel (AID 1118);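 further: score merges 667 nm emission intensity and signal-to-noise per printed compound spot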
Conditions: BSA-A647 binding, fluorescence 635 nm, higher = more signal
ASSAY METRIC: composite z-score
Lab note: write the figure by itself, no unit.

Name the recorded composite z-score for COC(=O)c1c(CC[C@@H](CO)NC(=O)N[C@@H](Cc2ccccc2)Cn2cc(-c3ccccn3)nn2)oc(C(=O)N2CCOCC2)c1C(=O)OC . 0.15

Name the recorded composite z-score for CN1C(=O)C2C=CC(C(O)c3c(F)cccc3Cl)N(NC(=O)OC(C)(C)C)C2C1=O (stereo not drawn) . 0.972

Name the recorded composite z-score for O=C1O[C@@H](c2ccccc2)[C@@H](c2ccccc2)N2[C@@H](c3ccccc3OCCO)[C@]3(C(=O)Nc4ccccc43)[C@@H](C(=O)O)[C@H]12 . 0.858

Name the recorded composite z-score for O=C(NC1CC1)[C@@H]1c2ccccc2C(=O)N(Cc2cc(F)cc(C(F)(F)F)c2)[C@H]1c1ccc(CO)cc1 . 0.416

Name the recorded composite z-score for O=C(O)[C@H](Cc1ccccc1)n1cc(-c2ccccc2)nn1 . 0.0644

Name the recorded composite z-score for CCCC[C@H]1C[C@@H]1[C@@H]1N(P(=O)(c2ccccc2)c2ccccc2)C[C@@](O)(c2ccccc2)CC12CC2 . 0.951

Name the recorded composite z-score for C=CC[C@]1(C(=O)NCc2ccccc2)N=C(c2ccc(OCCCO)cc2)O[C@H]1c1ccccc1CN=[N+]=[N-] . 0.183

Name the recorded composite z-score for CCCC1(C(=O)OC)C=C2C(=C(c3ccccc3)C(=O)C2C)CN1 (stereo not drawn) . -0.0235

// data source = PubChem BioAssay
